Form field: Relative Activity (Acceptor: GnGn-peptide) (one value per entry).
- EXPERIMENTAL_TARGET: recombinant GlcNAc-α1,3-fucosyl transferase (Vigna radiata)
- ASSAY_OVERVIEW: Assay for GlcNAc-α1,3-fucosyl transferase activity (GnGn peptide and GDP-L-[U-14C]-fucose)
- Assay type: biochemical, mung bean
- EXPERIMENTAL_PARAMETERS: additive conc. 10 mM; […]
The reply must contain the numeric value and, after it, the unit.

Sample records with Relative Activity (Acceptor: GnGn-peptide):
{"MOLECULE": "[Cl][Ni][Cl] [NiCl2]", "REPORTED": "24%"}
{"MOLECULE": "[Ca+2].[Cl-].[Cl-] [CaCl2]", "REPORTED": "82%"}
{"MOLECULE": "[Cl][Mn][Cl] [MnCl2]", "REPORTED": "100%"}

Kindly consider the entry below.
Q) Looking for the measured Relative Activity (Acceptor: GnGn-peptide) of [Cl][Cd][Cl] [CdCl2] , can you help?
A) 44%

----------
- EXPERIMENTAL_TARGET: recombinant GlcNAc-α1,3-fucosyl transferase (Vigna radiata, UniProt Q9ST51)
- Sequence (Q9ST51 entry or part of it): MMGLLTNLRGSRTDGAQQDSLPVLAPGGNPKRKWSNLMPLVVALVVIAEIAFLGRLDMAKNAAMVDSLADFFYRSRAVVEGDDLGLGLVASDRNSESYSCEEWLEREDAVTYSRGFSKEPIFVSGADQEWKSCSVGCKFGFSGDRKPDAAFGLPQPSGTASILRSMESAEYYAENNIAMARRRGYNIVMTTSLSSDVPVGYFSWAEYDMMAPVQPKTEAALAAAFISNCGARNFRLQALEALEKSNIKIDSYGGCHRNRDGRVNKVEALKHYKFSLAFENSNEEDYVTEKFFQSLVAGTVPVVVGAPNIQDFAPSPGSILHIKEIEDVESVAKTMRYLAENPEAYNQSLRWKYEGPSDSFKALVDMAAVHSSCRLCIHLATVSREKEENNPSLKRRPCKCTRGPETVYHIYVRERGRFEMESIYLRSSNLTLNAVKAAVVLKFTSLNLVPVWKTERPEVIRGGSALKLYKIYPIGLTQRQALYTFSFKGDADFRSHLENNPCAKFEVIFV
- ASSAY_OVERVIEW: Assay for GlcNAc-α1,3-fucosyl transferase activity (GnGn peptide and GDP-L-[U-14C]-fucose)
- Format: biochemical, mung bean
- EXPERIMENTAL_PARAMETERS: additive conc. 10 mM; recombinant transferase
MEASUREMENT_LABEL: Relative Activity (Acceptor: GnGn-peptide) (%)
Just the number please, in %, no unit attached.

Sample records with Relative Activity (Acceptor: GnGn-peptide):
{"COMPOUND": "O=C(O)CN(CCN(CC(=O)O)CC(=O)O)CC(=O)O [EDTA]", "EXPERIMENTAL_TARGET": "recombinant GlcNAc-α1,3-fucosyl transferase (Vigna radiata, UniProt Q9ST51)", "UNIT_OF_MEASURE": "%", "REPORTED": 18}
{"COMPOUND": "[Cl-].[Cl-].[Mg+2] [MgCl2]", "EXPERIMENTAL_TARGET": "recombinant GlcNAc-α1,3-fucosyl transferase (Vigna radiata, UniProt Q9ST51)", "UNIT_OF_MEASURE": "%", "REPORTED": 52}
{"COMPOUND": "[Cl][Cu][Cl] [CuCl2]", "EXPERIMENTAL_TARGET": "recombinant GlcNAc-α1,3-fucosyl transferase (Vigna radiata, UniProt Q9ST51)", "UNIT_OF_MEASURE": "%", "REPORTED": 3}

Q) Looking for the measured Relative Activity (Acceptor: GnGn-peptide) of [Cl-].[Cl-].[Zn+2] [ZnCl2] , can you help?
A) 0.6
